# target_system: human thyroid hormone receptors TRβ1 (Homo sapiens)
# Construct: made in house; host or cells: Sf9 insect cells (baculovirus)
# run_description: Receptor binding to TRβ1 (gel filtration and scintillation proximity assay, labeled T3)
# conditions: SPA data; read-out: Ki TRβ
pKi: −log10 of the molar value.
So I've got a bunch of molecules here, and I need their pKi values.

The following molecules have reported results that may help.
CC(C)c1cc(Oc2c(Cl)cc(C(=O)CP(=O)(O)O)cc2Cl)ccc1O = < 6.74
COP(=O)(O)Cc1cc(Br)c(Oc2ccc(O)c(C(C)C)c2)c(Br)c1 = 9.10

I would be grateful if you could share the reported pKi for Cc1cc(OCP(=O)(O)O)cc(C)c1Cc1ccc(F)c(C(C)C)c1 .
< 5.70

* * *

# target_system: human thyroid hormone receptors TRβ1 (Homo sapiens, UniProt P10828)
# Construct: made in house; host or cells: Sf9 insect cells (baculovirus)
# Sequence (P10828 whole entry, one chain of several): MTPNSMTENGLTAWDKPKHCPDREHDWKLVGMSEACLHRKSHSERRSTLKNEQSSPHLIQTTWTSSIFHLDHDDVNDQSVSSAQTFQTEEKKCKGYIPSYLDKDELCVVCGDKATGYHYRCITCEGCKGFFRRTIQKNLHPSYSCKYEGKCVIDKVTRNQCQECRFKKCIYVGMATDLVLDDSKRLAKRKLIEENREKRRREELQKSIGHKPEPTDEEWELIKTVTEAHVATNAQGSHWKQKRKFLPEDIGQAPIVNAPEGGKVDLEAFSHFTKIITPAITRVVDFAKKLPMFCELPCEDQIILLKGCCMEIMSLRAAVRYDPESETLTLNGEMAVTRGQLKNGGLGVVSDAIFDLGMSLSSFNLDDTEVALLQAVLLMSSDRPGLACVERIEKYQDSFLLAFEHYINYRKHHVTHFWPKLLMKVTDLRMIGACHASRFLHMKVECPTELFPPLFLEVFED
# run_description: Receptor binding to TRβ1 (gel filtration and scintillation proximity assay, labeled T3)
# conditions: SPA data; read-out: Ki TRβ
pKi: −log10 of the molar value.
Would you please tag the item 1 when its pKi is 8 or above, and 0 when it is below?

Past entries and their recorded results:
CC(C)c1cc(Cc2c(Cl)cc(OCP(=O)(O)O)cc2Cl)cc(Br)c1O [Compound 7-14] = 0
Cc1cc(OC[P@]2(=O)OCC[C@H](c3ccc(Cl)cc3)O2)cc(C)c1Cc1ccc(O)c(C(C)C)c1 [Compound 13-6-cis] = 0
Cc1cc(OC[P@@]2(=O)OCC[C@@H](c3cccc(Cl)c3)O2)cc(C)c1Cc1ccc(O)c(C(C)C)c1 [Compound 13-1-cis] = 0

Check this compound for pKi at or above 8: Cc1cc(OC[P@]2(=O)OCC[C@@H](c3cccnc3)O2)cc(C)c1Cc1ccc(O)c(C(C)C)c1 [Compound 13-4-trans]
0

Entry Cc1cc(OCP(=O)(O)O)c(C)c(C)c1Cc1ccc(O)c(C(C)C)c1 [Compound 61] please
1

Entry Cc1cc(C(=O)NCP(=O)(O)O)cc(C)c1Oc1ccc(O)c(C(C)C)c1 [Compound 23] please
0

* * *

# target_system: human thyroid hormone receptors TRα1 (Homo sapiens, UniProt P10827)
# Construct: made in house; host or cells: Sf9 insect cells (baculovirus)
# Sequence (P10827 1-410 isoform P10827-2): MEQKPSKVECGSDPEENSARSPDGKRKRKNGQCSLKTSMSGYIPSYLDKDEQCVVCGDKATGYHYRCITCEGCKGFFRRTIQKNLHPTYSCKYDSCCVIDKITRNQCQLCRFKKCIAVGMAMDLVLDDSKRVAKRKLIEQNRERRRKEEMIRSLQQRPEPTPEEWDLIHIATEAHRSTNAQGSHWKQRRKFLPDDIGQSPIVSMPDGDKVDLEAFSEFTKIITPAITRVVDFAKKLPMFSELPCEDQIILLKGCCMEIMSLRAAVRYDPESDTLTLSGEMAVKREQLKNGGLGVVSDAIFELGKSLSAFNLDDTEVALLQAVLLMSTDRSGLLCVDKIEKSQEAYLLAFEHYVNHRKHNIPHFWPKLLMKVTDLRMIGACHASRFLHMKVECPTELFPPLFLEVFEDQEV
# Sequence (P19793 1-462 partner): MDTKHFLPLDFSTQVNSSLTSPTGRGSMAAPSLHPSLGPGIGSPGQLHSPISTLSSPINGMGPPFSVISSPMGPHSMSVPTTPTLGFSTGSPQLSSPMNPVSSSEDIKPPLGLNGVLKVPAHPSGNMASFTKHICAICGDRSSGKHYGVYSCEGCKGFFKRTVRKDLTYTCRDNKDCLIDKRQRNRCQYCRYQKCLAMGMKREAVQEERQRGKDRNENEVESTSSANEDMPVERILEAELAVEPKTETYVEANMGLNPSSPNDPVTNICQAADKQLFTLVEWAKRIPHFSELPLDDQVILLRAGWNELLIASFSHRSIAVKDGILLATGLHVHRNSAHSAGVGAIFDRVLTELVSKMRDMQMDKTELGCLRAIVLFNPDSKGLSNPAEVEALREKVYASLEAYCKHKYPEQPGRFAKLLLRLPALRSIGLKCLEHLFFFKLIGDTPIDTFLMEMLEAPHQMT
# run_description: Receptor binding to TRα1 (gel filtration and scintillation proximity assay, labeled T3)
# conditions: SPA data; read-out: Ki TRα
pKi: −log10 of the molar value.
assay_readout: pKi

The following molecules have reported results that may help.
Cc1cc(OCP(=O)(O)O)cc(C)c1Nc1ccc(O)c(C(C)C)c1 = < 5.70
COc1ccc(Oc2c(C)cc(CCP(=O)(O)O)cc2C)cc1C(C)C = < 5.70
CC(C)c1cc(Cc2c(Cl)cc(C(=O)CP(=O)(O)O)cc2Cl)ccc1F = < 5.70
Cc1cc(OCP(=O)(O)O)cc(C)c1Cc1ccc(O)c(C(=O)c2ccc(F)cc2)c1 = < 5.70
CC(C)c1cc(Oc2c(Cl)cc(C(=O)CP(=O)(O)O)cc2Cl)ccc1O = < 5.85

I would be grateful if you could share the reported pKi for CCOC(=O)[C@@H](NP(=O)(COc1cc(C)c(Cc2ccc(O)c(C(C)C)c2)c(C)c1)N[C@H](C(=O)OCC)C(C)C)C(C)C .
< 5.70

* * *

# target_system: human thyroid hormone receptors TRα1 (Homo sapiens)
# Construct: made in house; host or cells: Sf9 insect cells (baculovirus)
# run_description: Receptor binding to TRα1 (gel filtration and scintillation proximity assay, labeled T3)
# conditions: SPA data; read-out: Ki TRα
assay_readout: log10(Ki) (log10 of the value in nM)
Quick note: numbers are log10 of Ki, with nM as the unit.

Cc1cc(OC[P@]2(=O)OCC[C@@H](c3ccncc3)O2)cc(C)c1Cc1ccc(O)c(C(C)C)c1 [Compound 13-5-trans] = 2.55
CC(C)c1cc(Cc2c(Cl)cc(OCP(=O)(O)O)cc2Cl)cc(Br)c1O [Compound 7-14] = 2.63
Cc1cc(OCP(=O)(O)O)cc(C)c1Cc1ccc(O)c(I)c1 [Compound 34] = 2.07
Cc1cc(OC[P@]2(=O)OCC[C@@H](c3cccc(Cl)c3)O2)cc(C)c1Cc1ccc(O)c(C(C)C)c1 [Compound 13-1-trans] = 3.24
Cc1cc(OC[P@@]2(=O)OCC[C@@H](c3cccc(F)c3)O2)cc(C)c1Cc1ccc(O)c(C(C)C)c1 [Compound 13-3-cis] = 3.45
O=P(O)(O)Cc1cc(I)c(Oc2ccc(O)c(I)c2)c(I)c1 [Compound 6] = 1.20
CC(C)c1cc(Oc2c(Br)cc(CP(=O)(O)O)cc2Br)ccc1O [Compound 19-2] = 2.54
COP(=O)(O)COc1cc(C)c(Cc2ccc(O)c(C(C)C)c2)c(C)c1 [Compound 69] = 1.13

Now, please, on to the next molecule.
I would be grateful if you could share the reported log10(Ki) for Cc1cc(OC[P@@]2(=O)OCC[C@@H](c3cc(Cl)cc(Cl)c3)O2)cc(C)c1Cc1ccc(O)c(C(C)C)c1 [Compound 13-7-cis] .
4.70

* * *

# target_system: human thyroid hormone receptors TRα1 (Homo sapiens)
# Construct: made in house; host or cells: Sf9 insect cells (baculovirus)
# run_description: Receptor binding to TRα1 (gel filtration and scintillation proximity assay, labeled T3)
# conditions: SPA data; read-out: Ki TRα
assay_readout: Ki

The following compounds have reported results that may help.
CCc1cc(Cc2c(C)cc(CCP(=O)(O)O)cc2C)ccc1O = > 2000 nM
Cc1cc(C(=O)NCP(=O)(O)O)cc(C)c1Oc1ccc(O)c(C(C)C)c1 = > 2000 nM

I would be grateful if you could share the reported Ki for COc1cc(CCP(=O)(O)O)cc(OC)c1Cc1ccc(O)c(C(C)C)c1 .
> 2000 nM

* * *

# target_system: human thyroid hormone receptors TRβ1 (Homo sapiens, UniProt P10828)
# Construct: made in house; host or cells: Sf9 insect cells (baculovirus)
# run_description: Receptor binding to TRβ1 (gel filtration and scintillation proximity assay, labeled T3)
# conditions: SPA data; read-out: Ki TRβ
So I've got a bunch of compounds here, and I need their Ki values.
One number for each entry, in nM.

The following compounds have reported results that may help.
CCC(C)c1cc(Cc2c(C)cc(OCP(=O)(O)O)cc2C)ccc1O (stereo not drawn) = 6.6
Cc1cc(OCP(=O)(O)O)cc(C)c1Cc1ccc(O)c(Cc2ccccc2)c1 = 5.4

I would be grateful if you could share the reported Ki for CC(C)c1cc(Oc2c(Br)cc(CP(=O)(O)O)cc2Br)ccc1O .
20

* * *

So I've got a bunch of compounds here, and I need their pKi values.
# target_system: human thyroid hormone receptors TRβ1 (Homo sapiens, UniProt P10828)
# Construct: made in house; host or cells: Sf9 insect cells (baculovirus)
# run_description: Receptor binding to TRβ1 (gel filtration and scintillation proximity assay, labeled T3)
# conditions: SPA data; read-out: Ki TRβ
pKi: −log10 of the molar value.

Cc1cc(OCP(=O)(O)O)cc(C)c1Cc1ccc(O)c(C(=O)O)c1 = < 5.70
COc1ccc(Oc2c(C)cc(CCP(=O)(O)O)cc2C)cc1C(C)C = < 5.70

Now, please, on to the next compound.
I would be grateful if you could share the reported pKi for CCOC(=O)[C@@H](NP(=O)(COc1cc(C)c(Cc2ccc(O)c(C(C)C)c2)c(C)c1)N[C@H](C(=O)OCC)C(C)C)C(C)C .
< 5.70

The reported numbers originate from patent US20090028925A1.
